Reported IC50 values are given for each entry in this list.
biological target: CSK protein (Homo sapiens (Human))
Sequence (P41240 whole entry): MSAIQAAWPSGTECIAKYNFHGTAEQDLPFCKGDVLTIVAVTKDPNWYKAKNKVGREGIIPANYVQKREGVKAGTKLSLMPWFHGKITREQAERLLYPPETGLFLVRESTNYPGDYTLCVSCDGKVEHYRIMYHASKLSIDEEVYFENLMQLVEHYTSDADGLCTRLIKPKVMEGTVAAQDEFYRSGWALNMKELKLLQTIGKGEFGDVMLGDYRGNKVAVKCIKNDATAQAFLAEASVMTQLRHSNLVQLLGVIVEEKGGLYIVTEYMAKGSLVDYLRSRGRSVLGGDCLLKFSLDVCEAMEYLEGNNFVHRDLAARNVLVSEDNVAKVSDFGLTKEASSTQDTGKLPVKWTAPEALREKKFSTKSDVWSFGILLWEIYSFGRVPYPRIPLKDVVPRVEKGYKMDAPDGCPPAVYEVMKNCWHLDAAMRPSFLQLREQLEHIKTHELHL
Entry rule: numbers only, all in µM.

// worked examples, IC50 included
COc1cc(NS(=O)(=O)c2c(F)cccc2F)cc(-c2nc(-c3ccccc3)sc2-c2ccnc(N)n2)c1 : 0.0282
COc1ccc(F)c(S(=O)(=O)Nc2cccc(-c3nc(-c4cncc(F)c4)sc3-c3ccnc(N)n3)c2F)c1F : 0.0763
CNc1nccc(-c2sc(-c3cnc(C)nc3)nc2-c2cccc(NS(=O)(=O)c3c(Cl)ccc(C)c3Cl)c2F)n1 : 0.0036
Nc1nccc(-c2sc(-c3ccc(F)cn3)nc2-c2cccc(NS(=O)(=O)c3c(F)cccc3F)c2F)n1 : 0.0616

query: Specify IC50 for Cc1ccc(F)c(S(=O)(=O)Nc2cccc(-c3nc(-c4cncc(F)c4)sc3-c3ccnc(NC4CC4)n3)c2F)c1F , system CSK protein (Homo sapiens (Human)).
result: 0.0091
